- target_entity: T1, Cynomolgus monkey CD98 expressed on stably transfected 3T12 cells (cynomolgus monkey)
- T1 construct: whole, on cells; also called cyCD98
- experimental_details: flow cytometry, 3T12 cells expressing cynomolgus CD98
pEC50: −log10 of the molar value.
recorded_metric: pEC50

binder	numeric_result
Recombinant anti-CD98 chimeric antibody chAb3 (antibody, human IgG1, V domains shown) VH: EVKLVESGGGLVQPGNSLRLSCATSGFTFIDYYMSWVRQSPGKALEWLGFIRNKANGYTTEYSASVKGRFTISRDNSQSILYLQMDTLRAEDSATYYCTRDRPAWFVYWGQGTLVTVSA VL: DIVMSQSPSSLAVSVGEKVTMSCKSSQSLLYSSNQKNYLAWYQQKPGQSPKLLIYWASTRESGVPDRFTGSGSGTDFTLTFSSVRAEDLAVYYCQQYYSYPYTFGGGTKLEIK	8.01
Recombinant anti-CD98 chimeric antibody chAb5 (antibody, human IgG1, V domains shown) VH: EVKLVESGGGLVQPGGSLRLSCATSGFTFTDYYMTWVRQPPGKALEWLGFIRNKANGYTTEYSASVKGRFTISRDNSLSILYLQMNTLRAEDSATYYCARASYVNSEGWFAYWGQGTLVTVSA VL: DIVMSQSPSSLAVSVGEKVTMSCKSSQSLLYSSNQKNYLAWYQQKLGQSPKLLIYWASTRESGVPDRFTGSGSGTDFTLTISSVKAEDLAVYYCQHYYSYPRTFGGGTKLEIK	7.62
Recombinant anti-CD98 chimeric antibody chAb1 (antibody, human IgG1, V domains shown) VH: EVKLVESGGGLVQPGGSLRLSCATSGFTFTDYYMSWVRQPPGKALEWLGFIRNPANVYTTEYSASVKGRFTISRDNSQSILYLQMNTLRAEDSATYYCARASYGNSEGWFAYWGQGTLVTVSA VL: DIVMSQSPSSLAVSVGEKVTMSCKSSQNLLYNNNQKNYLAWYQQKPGQSPKLLIYWASTRESGVPDRFTGSGSGTDFTLTISSVKAEDLAVYYCQQYYSYPRTFGGGTKLEIK	8.01
Recombinant anti-CD98 chimeric antibody chAb8 (antibody, human IgG1, V domains shown) VH: EVQLVESGGGLVQPGRSLKLSCAASGFTFSDYAMAWVRQAPKKGLEWVASIIYDGRGTYYRDSVKGRFTISRDNAKSTLYLQMDSLRSEDTATYYCARQGDGTYYYWGYFDYWGQGVMVTVSS VL: DIVMTQSPSSLAVSAGETVTINCKSSQSLLSSGNQKNYLAWYQQKPGQSPKLLIYWASTRQSGVPDRFIGSGSGTDFTLTINSVQAEDLAIYYCQQYYDTPYTFGAGTKLELK	7.99
Recombinant anti-CD98 chimeric antibody chAb10 (antibody, human IgG1, V domains shown) VH: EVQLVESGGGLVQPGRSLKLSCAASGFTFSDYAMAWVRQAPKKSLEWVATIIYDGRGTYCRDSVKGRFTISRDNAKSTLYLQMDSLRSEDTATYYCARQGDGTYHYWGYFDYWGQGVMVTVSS VL: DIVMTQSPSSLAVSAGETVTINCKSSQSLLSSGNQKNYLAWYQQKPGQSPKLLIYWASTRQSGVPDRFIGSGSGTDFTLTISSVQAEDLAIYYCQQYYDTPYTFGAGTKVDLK	7.97
